Inhibition overview
# Tested on: Staphylococcus aureus
# METHOD: Antibacterial activity against Staphylococcus aureus MRSA ATCC 43300 (CO-ADD:GP_020); MIC in CAMBH media using NBS plates, by Resazurin F(560/590)
# Format: functional
# MEASUREMENT_SETUP: Concentration 20 uM, ASSAY_TEST Inhibition of Bacterial Growth, detection method Resazurin, Fluorescence (ex560/em590), MEDIA CAMHB, plate type 384well, CORNING #3640, time 18 hr
Record the value in %, omitting the unit from your answer.

Look over these answered cases.
{"COMPOUND": "Cc1cccc2cc3cccc(C)c3nc12", "ASSAYED_TARGET": "Staphylococcus aureus", "Inhibition / %": -5.52}
{"COMPOUND": "CC1(C)CCSC(/C=C/c2ccccc2)=N1", "ASSAYED_TARGET": "Staphylococcus aureus", "Inhibition / %": 5.78}
{"COMPOUND": "Cc1ccc(S(=O)(=O)CCOC(=O)CNC(=O)OCc2ccccc2)cc1", "ASSAYED_TARGET": "Staphylococcus aureus", "Inhibition / %": 0.28}
{"COMPOUND": "O=C(O)c1cc2cc(OCc3ccccc3)ccc2[nH]1", "ASSAYED_TARGET": "Staphylococcus aureus", "Inhibition / %": 6.76}
{"COMPOUND": "Cc1cc(NC(=O)c2ccccc2)nc(C)n1", "ASSAYED_TARGET": "Staphylococcus aureus", "Inhibition / %": 8.84}
{"COMPOUND": "COc1ccc(-c2cc(-c3ccccc3)c(-c3ccccc3)nn2)cc1", "ASSAYED_TARGET": "Staphylococcus aureus", "Inhibition / %": -3.16}

// O=C(O)CCC1(c2ccccc2)NC(=O)NC1=O (configuration not stated) : Inhibition value = 11.61

// CCCCCCCC1(C)NC(=O)NC1=O (configuration not stated) : Inhibition value = 7.54

// NC1=NC(c2ccc(Cl)cc2)N(c2ccc(S(N)(=O)=O)cc2)C(N)=N1 (configuration not stated) : Inhibition value = -8.08

// `CC1(C)CC[C@]2(C(=O)n3ccnc3)CC[C@]3(C)[C@H](C(=O)C=C4[C@@]5(C)C=C(C#N)C(=O)C(C)(C)[C@@H]5CC[C@]43C)[C@@H]2C1` : Inhibition value = -14.27

// Cn1c(=O)c2c(ncn2CCOC(=O)C(C)(C)Oc2ccc(Cl)cc2)n(C)c1=O [THEOFIBRATE] : Inhibition value = -5.55

// `Sc1nccn1-c1ccccc1Cl` : Inhibition value = 5.33

###

# Tested on: Cryptococcus neoformans
# MEASUREMENT_SETUP: Concentration 20 uM; ASSAY_TEST Inhibition of Fungal Growth; detection method Resazurin; Absorption (OD600-OD570); plate type 384well; NBS; CORNING #3640
# Description: Antifungal activity against Cryptococcus neoformans H99 ATCC 208821 (CO-ADD:FG_002); MIC in YNB media using NBS plates, by Resazurin OD(600-570)
Entries with a potency or affinity are not part of this list.
Inhibition overview
Record the value in %, omitting the unit from your answer.

Look over these answered cases.
{"COMPOUND": "COCC(=O)Oc1cc(-c2ccc(C)cc2C)c(OC(=O)COC)c(-c2ccc(C)cc2C)c1", "Inhibition (%)": -1.11}
{"COMPOUND": "CSc1nc2nc(C(O)c3ccccc3)nc-2c[nH]1 (centres undefined)", "Inhibition (%)": 28.87}
{"COMPOUND": "NC(=O)c1cc(Br)cc(C2CCCCC2)c1O", "Inhibition (%)": -10.76}
{"COMPOUND": "Oc1ccc(Cl)nn1", "Inhibition (%)": 1.34}
{"COMPOUND": "O=C(Nc1ccsn1)c1ccc(Cl)cc1Cl", "Inhibition (%)": 7.18}
{"COMPOUND": "CCOC(=O)Nc1ccc(C(=O)/C=C/c2ccccc2)cc1", "Inhibition (%)": -5.25}

// `COC(=NC(C)C)NC(C)C` : Inhibition value = -13.2

// `OCc1cc(O)c(CO)nn1` : Inhibition value = 1.1

// `O=C1/C(=C/c2ccc([N+](=O)[O-])cc2)CCc2ccccc21` : Inhibition value = -8.15

Cited source: ChEMBL document CHEMBL4296182
